Molecular target: Recombinant human HSP90α (Homo sapiens, UniProt P07900)
Experiment: HSP90 radioligand filter binding test ([3H]17AAG competition)
Settings: radioligand [3H]17AAG 0.08 μM; HSP90 1.5 μg/assay; 22° C., 30 min; read-out: HSP90 inhibition IC50
recordedEndpoint: IC50

1. CN1CCN(C(=O)Cc2ccc3nc(N)nc(C(=O)N4Cc5ccccc5C4)c3c2)CC1 [Compound A17] :: 1000 to 10000 nM
2. CCNC(=O)C(c1ccc2nc(N)nc(C(=O)N3Cc4ccccc4C3)c2c1)C(C)CC (stereo not drawn) [Compound A47] :: 10 to 1000 nM
3. CC(C)(C)NC(=O)Cc1ccc2nc(N)nc(C(=O)N3Cc4ccccc4C3)c2c1 [Compound A7] :: 1000 to 10000 nM
4. CCNC(=O)C(c1ccc2nc(N)nc(C(=O)N3Cc4ccccc4C3)c2c1)C(C)C (stereo not drawn) [Compound A48] :: 10 to 1000 nM
5. Nc1nc(C(=O)N2Cc3ccccc3C2)c2cc(CC(=O)O)ccc2n1 [Compound A2] :: 1000 to 10000 nM
6. CN(C)C(=O)C1(c2ccc3nc(N)nc(C(=O)N4Cc5ccccc5C4)c3c2)CC1 [Compound A22] :: 1000 to 10000 nM

All figures here come from patent US8906930B2.
